# Tested on: IGROV1 ovarian
# assay protocol: NCI tumour cell line growth inhibition, 48 h
parameter measured: TGI

Illustrative cases are given below, each with its answer.
{"columns": ["molecule", "TGI"],
 "data": [
  ["CCOc1ccccc1NC(=O)CC1Sc2ccccc2NC1=O (configuration not stated)", "> 100 µM"],
  ["NC(=O)SCC(=O)Nc1ccc2cccc3c2c1CC3", "> 100 µM"],
  ["COc1ccc(C2CC(c3cc(Cl)c(C)cc3O)=NN2c2ccc(S(N)(=O)=O)cc2)cc1OC (configuration not stated)", "5.46 µM"],
  ["O=C(O)CC(O)(c1ccccc1C(=O)O)c1cccc2ccccc12 (configuration not stated)", "> 100 µM"],
  ["Cc1cc(C)c(-c2cc(O)c(-c3c(C)cc(C)cc3C)cc2O)c(C)c1", "> 100 µM"],
  ["NN/C(=N\\S(=O)(=O)c1cc2ccccc2o1)Nc1ccc(Cl)cc1", "> 100 µM"],
  ["Cc1cc(NN)nc2n[nH]c(N)c12", "> 100 µM"],
  ["CCCCCCCCc1cc[n+](CC(=O)c2ccc(Br)cc2)cc1", "2.45 µM"]
]}

Item C/C(CCn1[nH]c(=O)ccc1=O)=N\N=C(N)N was tested on IGROV1 ovarian; the reported TGI is > 100 µM

Item COc1cc(Br)cc2cc(C3=CSC4=NCCN34)c(=O)oc12 was tested on IGROV1 ovarian; the reported TGI is 32.5 µM

Item N#CCN1c2ccccc2CCC1Cl (configuration not stated) was tested on IGROV1 ovarian; the reported TGI is > 10 µM

Item C=CCCC1CCCNC1=S (configuration not stated) was tested on IGROV1 ovarian; the reported TGI is > 100 µM

====

# reported TGI; entries follow
# Test system: A549 NSCLC
# assay protocol: NCI tumour cell line growth inhibition, 48 h

Item c1ccc(CNCCN2CCNCC2)nc1 was tested on A549 NSCLC; the reported TGI is > 100 µM

Item O=C(CCCn1cnc([N+](=O)[O-])n1)NCCCn1ccnc1[N+](=O)[O-] was tested on A549 NSCLC; the reported TGI is > 100 µM

Item N=c1oc2c(O)c(O)ccc2cc1C(N)=O was tested on A549 NSCLC; the reported TGI is > 100 µM

Item C=C(C)C(=O)Oc1ccc(N=Nc2ccc(C)cc2)ccc1=O was tested on A549 NSCLC; the reported TGI is 18.3 µM

Item N=[N+]=NC1C(O)C(CO)OC1n1cnc2c(N)ncnc21 (stereo not given) was tested on A549 NSCLC; the reported TGI is > 100 µM

====

# System: NCI-H23 lung
# assay protocol: NCI tumour cell line growth inhibition, 48 h; in the data active means GI50 below about 0.43 µM; inactive means the rest
Hello, when you answer, please use one of the following outcomes: active, inactive

Reference set (3 entries):
{"columns": ["compound", "assigned category"],
 "data": [
  ["NCCOc1ncccc1/C=C1\\c2ccccc2-c2ccc(F)cc21", "inactive"],
  ["CCCCNCC(O)c1cc2c(Cl)cc(Cl)cc2c2cc(C(F)(F)F)ccc12 (stereo not drawn)", "inactive"],
  ["C[C@@]12C(=O)OC(=O)[C@]1(C)[C@H]1CC[C@@H]2O1", "inactive"]
]}

Q: For COc1cc(/C=N/Nc2ncnc3[nH]ncc23)ccc1O , which call appears in the assay record?
Ans: inactive

Q: For Cc1cc(-c2ncc(-c3cccnc3)cc2/C=C/c2ccccc2)cnc1-c1cccnc1 , which call appears in the assay record?
Ans: inactive

Q: For COc1ccc2c(c1)C(=O)c1c-2n(CCCCl)c(=O)c2cc(OC)c(OC)cc12 , which call appears in the assay record?
Ans: inactive

Q: For CNc1ccc(C(=O)CC(O)CCC(C)C2OC(=O)CC(O)CC(=O)CC(O)CC(O)CC(O)CC(O)CC3(O)CC(O)C(C(=O)NCCN(C)C)C(CC(OC4OC(C)C(O)C(NC(=O)CN5CCN(CCO)CC5)C4O)/C=C/C=C/C=C/C=C\C=C/C=C/C=C/C2C)O3)cc1 (stereo not drawn) , which call appears in the assay record?
Ans: inactive

Q: For COc1cc(-c2n[nH]nc2-c2ccc3c(c2)OCCO3)cc(OC)c1OC , which call appears in the assay record?
Ans: active

Q: For CCCC(c1nnnn1C1CCCCC1)N1CCN(C(=O)c2ccco2)CC1 (stereo not drawn) , which call appears in the assay record?
Ans: inactive

Q: For Nc1cc2c([nH]c[n+]2CC#CCCl)c(SCC#CCCl)n1 , which call appears in the assay record?
Ans: inactive

Q: For Cn1cc(-c2nc3c(F)cc4[nH]ncc4c3c3c2CCCC3)c(C(F)(F)F)n1 , which call appears in the assay record?
Ans: inactive

Q: For CCN1CCC(Oc2c(C#N)ncc3[nH]c4ncccc4c23)CC1 , which call appears in the assay record?
Ans: inactive

Q: For CC(=O)c1nc2ccccc2n1CCN1CCN(C)CC1 , which call appears in the assay record?
Ans: inactive

Q: For O=C(NCCCCNC(=O)OCc1ccc2c(Cl)cc(Cl)c(O)c2n1)OCc1ccc2c(Cl)cc(Cl)c(O)c2n1 , which call appears in the assay record?
Ans: inactive

Q: For CCN(Cc1ccncc1)c1ccc(CO)c(Cl)c1 , which call appears in the assay record?
Ans: inactive

Q: For Cc1cc(C)c(-c2cc(O)c(-c3c(C)cc(C)cc3C)cc2O)c(C)c1 , which call appears in the assay record?
Ans: inactive

Q: For COc1ccc(/C=C(\C#N)c2ccc(OC)cc2)cc1 , which call appears in the assay record?
Ans: inactive

Q: For Cc1ccc(-c2c(C#N)[n+](=O)c3cc(Cl)c(Cl)cc3n2[O-])cc1 , which call appears in the assay record?
Ans: inactive
